Every entry's value here was drawn from the supplement of paper PMC7877785.

assay: self-splicing fitness, log relative to wild type (ln ratio); higher = more splicing; Tetrahymena group I intron in knt gene, E. coli kanamycin selection, DiMSum; sequences stand for … in CUCUCU…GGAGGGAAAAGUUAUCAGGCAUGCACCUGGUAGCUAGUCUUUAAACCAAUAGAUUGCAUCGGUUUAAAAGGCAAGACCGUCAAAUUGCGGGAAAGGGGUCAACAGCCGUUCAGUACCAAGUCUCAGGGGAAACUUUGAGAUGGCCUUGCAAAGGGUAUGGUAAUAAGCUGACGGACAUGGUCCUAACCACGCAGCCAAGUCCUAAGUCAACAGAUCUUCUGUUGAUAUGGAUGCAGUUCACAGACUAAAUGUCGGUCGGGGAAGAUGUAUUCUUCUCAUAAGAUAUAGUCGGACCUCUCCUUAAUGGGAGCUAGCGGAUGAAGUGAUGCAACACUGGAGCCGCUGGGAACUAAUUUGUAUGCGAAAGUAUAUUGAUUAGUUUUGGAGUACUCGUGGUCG; conditions: 37 °C;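 note: selection with 25 µg/mL kanamycin versus none on LB agar overnight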
Readout name: self-splicing fitness (ln)

Solved entries:
{"Sequence": "GAACAGCAAUAUUACGAAUC", "Data value": -1.9}
{"Sequence": "UUGCAGCAAUAUUACGUCGA", "Data value": 0.0432}
{"Sequence": "GCCUAGCAAUAUUACGUUGA", "Data value": -0.577}
{"Sequence": "AUCUAGCAAUAUUACGCGGC", "Data value": -2.92}
{"Sequence": "AACUAGCAAUAUUACGUAUC", "Data value": -2.38}

I'd like to know its self-splicing fitness (ln). The sequence in question is CAUCAGCAAUAUUACGGGUC
-0.644

Please give the result for ACCGAGCAAUAUUACGUUAA too.
-2.7

Please give the result for UCUUAGCAAUAUUACGAGGU too.
-1.82

Please give the result for CAAUAGCAAUAUUACGAGGG too.
-0.649

Please give the result for CGCGAGCAAUAUUACGAUGA too.
-1.7

Please give the result for GUGUAGCAAUAUUACGUGGU too.
-1.17

Please give the result for UCACAGCAAUAUUACGAGUC too.
-3.01

Please give the result for UUAUAGCAAUAUUACGCGAG too.
-0.334

Please give the result for UUAGAGCAAUAUUACGAUCG too.
-1.67

Please give the result for GGUAAGCAAUAUUACGCAGU too.
-1.55

* * *

Each entry below lists one item and its recorded self-splicing fitness (ln) value.
test: self-splicing fitness, log relative to wild type (ln ratio); higher = more splicing; Tetrahymena group I intron in knt gene, E. coli kanamycin selection, DiMSum; sequences stand for … in CUCUCU…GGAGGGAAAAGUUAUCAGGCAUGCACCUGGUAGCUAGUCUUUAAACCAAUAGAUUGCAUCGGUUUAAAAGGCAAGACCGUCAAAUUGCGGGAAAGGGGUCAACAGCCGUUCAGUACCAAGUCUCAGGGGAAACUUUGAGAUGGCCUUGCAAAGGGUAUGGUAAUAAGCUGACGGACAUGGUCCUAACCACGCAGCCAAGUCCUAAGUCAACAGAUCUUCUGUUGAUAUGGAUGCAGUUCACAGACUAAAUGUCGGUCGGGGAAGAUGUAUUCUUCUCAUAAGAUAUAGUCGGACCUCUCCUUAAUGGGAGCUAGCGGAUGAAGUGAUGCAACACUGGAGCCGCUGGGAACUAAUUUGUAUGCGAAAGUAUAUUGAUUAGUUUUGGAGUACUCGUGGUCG; conditions: 37 °C
Please give only the number in your answer, with no unit.

Solved entries:
{"Sequence": "AAGUAGCAAUAUUACGGUAG", "self-splicing fitness (ln)": -2.72}
{"Sequence": "AAGCAGCAAUAUUACGACCU", "self-splicing fitness (ln)": 0.149}
{"Sequence": "GGAGAGCAAUAUUACGACGU", "self-splicing fitness (ln)": -0.823}
{"Sequence": "GACUAGCAAUAUUACGUUGG", "self-splicing fitness (ln)": -2.42}

I'd like to know its self-splicing fitness (ln). The sequence in question is CGUGAGCAAUAUUACGGCAU
-2.28

Please give the result for CGUGAGCAAUAUUACGAGGU too.
-1.35

Please give the result for CAGGAGCAAUAUUACGGCGG too.
-0.0448

Please give the result for UAUGAGCAAUAUUACGCGAA too.
-0.947
